Reference source: patent US20230037815A1

Could you please report measured pKd for the items listed next?
- system: T1, human serum albumin (human, UniProt P02768 25-609)
- T1 construct: also called HSA
- assay-explanation: Octet HTX (ForteBio), HCAb on AHC sensor, 1:1 fit
Answers are plain numbers, as −log10 of the molar value.

Completed entries (count: 3):
binder	numeric-result
CNG-HSA-107 (VHH) VHH: KVQLLESGGGLVQPGGSLRLSCAASGFTFSSFGMSWVRQAPGKGLEWVSSISGSGSDTLYADSVRGRFTISRDNSKNTLYLQMNSLRAEDTAVYYCSIGGSLIRSSQGTLVTVSS	7.77
CNG-HSA-102 (VHH) VHH: KVQLLESGGGLVQPGGSLRLSCAASGFTFSSFGMSWVRQAPGKGLEWVSSISGSGSDTLYADSVRGRFTISRDNSKNTLYLQMNSLRPEDTAVYYCTIGGSLSPSSQGTLVTVSS	8.31
CNG-HSA-103 (VHH) VHH: KVQLVESGGGLVQPGGSLRLSCAASGFTFSSFGMTWVRQAPGKGLEWVSSISGSGSDTLYADSVRGRFTISRDNSKNTLYLQMNSLRPEDTAVYYCTIGGSLSPSSQGTLVTVSS	8.31

Consider CNG-HSA-111 (VHH) VHH: KVQLVESGGGLVQPGGSLRLSCAASGFTFSSFGMSWVRQAPGKGLEWVSSISGSGSDTLYADSVEGRFTISRDNSKNTLYLQMNSLRAEDTAVYYCTIGGSLKQSSQGTLVTVSS . Its measured pKd is 8.08
